system under test: T1, rat α-CGRP (Rattus norvegicus, UniProt P01256)
T1 construct: rat α (1-37); host or cells: synthetic peptide
T1 sequence (P01256 83-119 limits assumed): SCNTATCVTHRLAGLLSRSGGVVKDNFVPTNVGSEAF
assay details: Biacore affinity of antibody G1 Fab and variants to rat α-CGRP
Format: binding
experimental setup: 37° C., Fab, screening mode unless underlined
property name: α-rat koff (s⁻¹)
I only need the number, in s⁻¹, no unit after it.

Some molecules with known α-rat koff results, for comparison:
molecule="M66: G1 variant: L1 R28N,T30G; L2 L56I; H2 E54K,A57E; HC-FW3 L99T,A100V (antibody, V domains shown) VH: EVQLVESGGGLVQPGGSLRLSCAASGFTFSNYWISWVRQAPGKGLEWVAEIRSKSDESATHYAEAVKGRFTISRDNAKNSLYLQMNSLRAEDTAVYYCTVYFDYGLAIQNYWGQGTLVTVSS VL: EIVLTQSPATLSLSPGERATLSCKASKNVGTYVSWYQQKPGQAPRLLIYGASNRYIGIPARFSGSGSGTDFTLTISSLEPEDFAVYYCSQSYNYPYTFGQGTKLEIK" measurement=0.00511
molecule="M68: G1 variant: L1 R28N,T30G; L2 L56I; H2 E54K,A57N,S58D,E64D; HC-FW3 L99T,A100V (antibody, V domains shown) VH: EVQLVESGGGLVQPGGSLRLSCAASGFTFSNYWISWVRQAPGKGLEWVAEIRSKSDNDATHYADAVKGRFTISRDNAKNSLYLQMNSLRAEDTAVYYCTVYFDYGLAIQNYWGQGTLVTVSS VL: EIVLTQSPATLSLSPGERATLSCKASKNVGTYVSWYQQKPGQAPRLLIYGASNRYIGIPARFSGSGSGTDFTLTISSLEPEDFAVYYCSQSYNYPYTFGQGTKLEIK" measurement=0.00676
molecule="M81: G1 variant: L1 R28N,T30S; L2 L56S; H2 E54K,A57N,S58E; HC-FW3 L99T,A100V (antibody, V domains shown) VH: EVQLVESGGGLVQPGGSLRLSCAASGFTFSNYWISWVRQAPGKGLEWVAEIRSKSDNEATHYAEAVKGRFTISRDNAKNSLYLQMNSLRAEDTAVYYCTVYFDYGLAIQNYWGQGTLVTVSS VL: EIVLTQSPATLSLSPGERATLSCKASKNVSTYVSWYQQKPGQAPRLLIYGASNRYSGIPARFSGSGSGTDFTLTISSLEPEDFAVYYCSQSYNYPYTFGQGTKLEIK" measurement=0.00429

Now look at this entry.
// recorded α-rat koff for M57: G1 variant: L1 R28N,T30D; L2 L56S; H2 E54K,A57N,S58E; HC-FW3 L99T,A100V (antibody, V domains shown) VH: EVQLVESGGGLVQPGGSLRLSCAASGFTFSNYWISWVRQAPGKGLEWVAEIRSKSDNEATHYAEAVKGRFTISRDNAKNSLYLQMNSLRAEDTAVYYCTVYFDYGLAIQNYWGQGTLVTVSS VL: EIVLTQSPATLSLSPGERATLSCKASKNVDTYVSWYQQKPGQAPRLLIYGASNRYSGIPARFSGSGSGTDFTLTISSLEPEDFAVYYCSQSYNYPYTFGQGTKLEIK : 0.0104

Origin of values: patent US10766952B2
